- assayTarget: Vitamin D3 receptor (Homo sapiens) (UniProt P11473)
- testSummary: Agonist activity at VDR in human MG-63 cells assessed as osteocalcin production compound incubated for 8 hrs measured after 4 days by EIA relative to 1,25(OH)2D3
- Assay type: cell-based
observationType: Activity (%)

See these solved cases before continuing.
CCC(O)(/C=C/c1ccc(C(CC)(CC)c2ccc(OC[C@@H](O)CCC(=O)[O-])c(C)c2)cc1C)CC.[Na+] :: 447
CCC(CC)(c1ccc(CCC(O)(C(F)(F)F)C(F)(F)F)c(C)c1)c1ccc(OC[C@@H](O)CCC(=O)[O-])c(C)c1.[Na+] :: 429

a: CCC(CC)(c1ccc(C#CC(O)(C(F)(F)F)C(F)(F)F)c(C)c1)c1ccc(OC[C@@H](O)CCC(=O)[O-])c(C)c1.[Na+]
b: CCC(CC)(c1ccc(OCC(O)CO)c(C)c1)c1ccc(OCC(O)C(C)(C)C)c(C)c1 (stereo not given)
c: CCC(CC)(c1ccc(/C=C/C(O)(C(F)(F)F)C(F)(F)F)c(C)c1)c1ccc(OC[C@@H](O)CCC(=O)[O-])c(C)c1.[Na+]
Returns the items ordered by Activity, from maximum to minimum. Arrange the labels as the request states and list them.
c, a, b

* * *

- assayTarget: Vitamin D3 receptor (Homo sapiens) (UniProt P11473)
- Sequence (whole entry): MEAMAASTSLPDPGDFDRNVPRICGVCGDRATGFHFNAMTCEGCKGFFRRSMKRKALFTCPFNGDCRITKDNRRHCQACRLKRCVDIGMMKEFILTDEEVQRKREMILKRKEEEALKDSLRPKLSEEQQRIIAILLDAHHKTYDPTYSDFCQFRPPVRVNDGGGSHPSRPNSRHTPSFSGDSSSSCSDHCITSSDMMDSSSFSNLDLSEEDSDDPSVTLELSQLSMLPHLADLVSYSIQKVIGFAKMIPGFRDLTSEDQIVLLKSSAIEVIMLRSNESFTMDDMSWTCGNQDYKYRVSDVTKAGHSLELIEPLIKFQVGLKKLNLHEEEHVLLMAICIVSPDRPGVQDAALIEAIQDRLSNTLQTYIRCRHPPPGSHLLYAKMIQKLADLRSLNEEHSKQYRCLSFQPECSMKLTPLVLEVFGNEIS
- testSummary: Agonist activity at VDR in human MG-63 cells assessed as transcriptional activation of osteopontin gene after 3 days by luciferase reporter gene assay relative to 1,25(OH)2D3
- Type: cell-based
observationType: Activity (%)

CCC(O)(/C=C/c1ccc(C(CC)(CC)c2ccc(OC[C@@H](O)CCC(=O)[O-])c(C)c2)cc1C)CC.[Na+] :: 105

I: CCC(CC)(c1ccc(CCC(O)(C(F)(F)F)C(F)(F)F)c(C)c1)c1ccc(OC[C@@H](O)CCC(=O)[O-])c(C)c1.[Na+]
II: CCC(CC)(c1ccc(C#CC(O)(C(F)(F)F)C(F)(F)F)c(C)c1)c1ccc(OC[C@@H](O)CCC(=O)[O-])c(C)c1.[Na+]
III: CCC(CC)(c1ccc(/C=C/C(O)(C(F)(F)F)C(F)(F)F)c(C)c1)c1ccc(OC[C@@H](O)CCC(=O)[O-])c(C)c1.[Na+]
Put these in order: smallest Activity first, largest last. A complete answer lists every label in the requested sequence.
II, I, III
